Taken from patent US20210283212A1.

Avg. IC50, human hemolysis assay overview
- Study Target: human C5 protein (human, UniProt P01031 19-673; P01031 678-1676)
- Assay Name: cell-based or functional assay
Positions of bridges follow the written chain, without caps; N, C: chain ends. Non-standard residues stand in square brackets, D forms with d. Primed or numbered codes have the meaning given here. No end group written: not given here. mXylyl(3) = bridging moiety between the two residues given in brackets; mXylyl″ = bridging moiety between the two marked residues; Trp(5-F) = N[C@@H](Cc1c[nH]c2ccc(F)cc12)C(=O)O; Trp(7-aza) = N[C@@H](Cc1c[nH]c2ncccc12)C(=O)O; mXylyl(4) = bridging moiety between residues; Phe(3-Cl) = N[C@@H](Cc1cccc(Cl)c1)C(=O)O; Chg = N[C@H](C(=O)O)C1CCCCC1; Phg = N[C@H](C(=O)O)c1ccccc1; Tle = CC(C)(C)[C@H](N)C(=O)O; NMeS = CN[C@@H](CO)C(=O)O; hCys = N[C@@H](CCS)C(=O)O; Nva = CCC[C@H](N)C(=O)O; Sar = CNCC(=O)O

Binder	U	Readout Relation	Avg. IC50, human hemolysis assay
Ac-[Nva][Nva]YEN[Tle]Y[Trp(7-aza)]EYP[Chg][Nva]K (not fully specified (residue 14, C-terminus); printed as Ac-Nvl-Nvl-Y-E-N-Tbg-Y-azaTrp-E-Y-P-Chg-Nvl-K-(PEG2000) NH2; also: PEG2000 at C-terminal Lys (K-(PEG2000) NH2), attachment unclear) [R3077]	nM	=	81.7
Ac-CVERFCDVYWEFP-NH2 (linker 1-6 via mXylyl(3)) [R3141]	nM	=	24.5
Ac-CVARFCD[Tle]Y[Trp(7-aza)]EYP[Phg][Nva]-NH2 (linker 1-6 via mXylyl(3)) [R3150]	nM	=	32
Ac-[Nva]CYE[Sar][Tle]Y[Trp(7-aza)]EC[Nva]P[Nva]-NH2 (linker 2-10 via mXylyl″) [R3009]	nM	>	100000
Ac-[Nva]C[Phg]T[Trp(5-F)]EY[NMeS]AC[Nva]-NH2 (linker 2-10 via mXylyl(3)) [R3088]	nM	>	100000
CVERFCDGYWEYP ([mXylyl(1,6)]Ac-C-V-E-R-F-C-D-Tbg-Y-W-E-Y-P-NH2) [R3143]	nM	=	18.6
Ac-[Nva]C[Phg]T[Trp(7-aza)]EA[NMeS]HC[Nva]-NH2 (linker 2-10 via mXylyl(4)) [R3036]	nM	>	50000
Ac-[Nva]C[Phg]T[Trp(7-aza)]E[Phe(3-Cl)][NMeS]AC[Nva]-NH2 (linker 2-10 via mXylyl(3)) [R3134]	nM	>	5000
MCVERFCDVY-NH2 (linker 2-7 via mXylyl(4)) [R3045]	nM	>	100000
Ac-[Nva][hCys][Phg]T[Trp(7-aza)]EY[NMeS]H[hCys][Nva]-NH2 (linker 2-10 via mXylyl(3)) [R3107]	nM	>	75000
